Origin of the recorded values: the Immune Epitope Database (IEDB)

target: HLA-A*02:12; experiment: IEDB peptide-MHC binding, purified MHC/direct/fluorescence; filed as Kd, often an IC50 or EC50 that approximates it; bounds were set here for any values at or beyond the usual limits of such assays; settings: source organism: Orthohantavirus hantanense
pKd: −log10 of the molar value.
measure-name: pKd

• WLIEPCKLL = 6.86

* * *

target: HLA-A*02:01; experiment: IEDB peptide-MHC binding, purified MHC/competitive/fluorescence; filed as Kd, often an IC50 or EC50 that approximates it; bounds were set here for any values at or beyond the usual limits of such assays; conditions: source organism: Burkholderia mallei ATCC 23344
measure-name: Kd

- RLRRRRHPL: ≥ 20 µM

* * *

target: HLA-B*07:02; experiment: IEDB peptide-MHC binding, purified MHC/direct/fluorescence; filed as Kd, often an IC50 or EC50 that approximates it; bounds were set here for any values at or beyond the usual limits of such assays; details: source organism: Pseudomonas aeruginosa
pKd: −log10 of the molar value.
pKd by entry:
measure-name: pKd

- GEDDDMLPW: ≤ 4.70
- SEYKAAGYL: ≤ 4.70

* * *

target: HLA-A*33:01; assay: IEDB peptide-MHC binding, purified MHC/competitive/radioactivity; filed as Kd, often an IC50 or EC50 that approximates it; bounds were set here for any values at or beyond the usual limits of such assays; settings: source organism: Hepatitis C virus (isolate 1)
measure-name: Kd

- HPNIEEVAL: ≥ 77.7 µM

* * *

Overview of recorded Kd for various sequences
biological target: HLA-B*58:01; assay: IEDB peptide-MHC binding, purified MHC/competitive/fluorescence; filed as Kd, often an IC50 or EC50 that approximates it; bounds were set here for any values at or beyond the usual limits of such assays; details: source organism: Yersinia pestis Nepal516
measure-name: Kd

- FTWSGDVRY: 404 nM
- KTAVVVTRY: 36.2 nM
- FTIRDVLAY: 4.1 nM
- RTLDTLALY: 8.4 nM

* * *

molecular target: HLA-C*06:02; assay: IEDB peptide-MHC binding, purified MHC/direct/fluorescence; filed as Kd, often an IC50 or EC50 that approximates it; bounds were set here for any values at or beyond the usual limits of such assays; conditions: source organism: Influenza A virus (A/81/HO)
pKd: −log10 of the molar value.
measure-name: pKd

- WMACNSAAF: ≤ 4.70

* * *

biological target: HLA-B*45:06; experiment: IEDB peptide-MHC binding, purified MHC/competitive/fluorescence; filed as Kd, often an IC50 or EC50 that approximates it; bounds were set here for any values at or beyond the usual limits of such assays; details: source organism: Mycobacterium tuberculosis H37Ra
pKd: −log10 of the molar value.
measure-name: pKd

- LEMQHLISL: ≤ 5.30

* * *

target: HLA-A*11:01; experiment: IEDB peptide-MHC binding, purified MHC/direct/fluorescence; filed as Kd, often an IC50 or EC50 that approximates it; bounds were set here for any values at or beyond the usual limits of such assays; conditions: source organism: Corynebacterium glutamicum
measure-name: Kd

* YELLRYNEY | ≥ 20 µM

* * *

target: HLA-A*03:01; assay: IEDB peptide-MHC binding, purified MHC/direct/fluorescence; filed as Kd, often an IC50 or EC50 that approximates it; bounds were set here for any values at or beyond the usual limits of such assays; conditions: source organism: Burkholderia mallei
measure-name: Kd

* ISDSAQNMM | ≥ 20 µM
